Sourced from PubChem BioAssay (Tox21)

- measured_target: Cytochrome P450 3A4 (Homo sapiens) (UniProt P08684)
- Sequence (P08684 whole entry, looked up): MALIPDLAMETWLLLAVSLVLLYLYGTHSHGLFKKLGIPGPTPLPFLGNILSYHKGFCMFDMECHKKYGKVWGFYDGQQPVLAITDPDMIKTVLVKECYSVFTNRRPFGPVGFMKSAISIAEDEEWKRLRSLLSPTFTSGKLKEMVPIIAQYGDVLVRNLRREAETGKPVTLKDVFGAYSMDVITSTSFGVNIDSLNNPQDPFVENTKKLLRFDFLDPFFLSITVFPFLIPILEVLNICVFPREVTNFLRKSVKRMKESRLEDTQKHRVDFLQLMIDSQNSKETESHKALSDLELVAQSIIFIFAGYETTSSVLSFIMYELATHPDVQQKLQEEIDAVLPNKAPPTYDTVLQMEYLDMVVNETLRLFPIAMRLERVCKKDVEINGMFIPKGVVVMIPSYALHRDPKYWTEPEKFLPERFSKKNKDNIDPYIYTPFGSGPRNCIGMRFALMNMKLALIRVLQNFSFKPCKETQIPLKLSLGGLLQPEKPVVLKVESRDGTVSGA
- protocol_description: Cytochrome P450 Family 3 Subfamily A Member 4 (CYP3A4) small molecule antagonists: luciferase reporter qHTS assay (AID 1671201); also: % is scaled to controls: 0 for no effect and ±100 for the full control effect; nearly all actives have a fitted effect of over 50% in size
- test_conditions: P450-Glo CYP3A4 enzyme, luciferin luminescence, 1 h; series mostly up to 115 µM
Records with an inconclusive call do not appear. Active and inactive are the calls of the source. Calls follow the shape of the dose curve; as a rule, active = well fitted inhibition curve with a large enough effect in the repeat runs; inconclusive = weak or mixed curves; inactive = no such curve, though single readings can be large or run the other way.
API: response.call in active, inactive

Please review the following examples before continuing.
- COc1ccccc1OCC(O)COC(N)=O (centres undefined): inactive
- CC(C)Nc1nc(N)nc(Cl)n1: inactive
- OCCN1CCN(CCO)CC1: inactive

Record request — test call for CN1[C@@H]2CC[C@H]1CC(OC(=O)c1c[nH]c3ccccc13)C2 (some centres undefined)
inactive

Just curious, what result did O=C(CCCl)NCc1ccccc1 get here?
inactive

Query: recorded result category for CN(C)CCOc1ccccc1Cc1ccccc1 in this test
inactive

Query: recorded result category for CC/C=C\CCOC(=O)CCCCC in this test
inactive

Returns: the outcome recorded for COc1ccccc1N1CCN(CCCNc2cc(=O)n(C)c(=O)n2C)CC1 in this assay.
inactive

Short answer needed: outcome of this test for CCc1cc(Cl)c(OC)c(C(=O)NC[C@@H]2CCCN2CC)c1O ?
inactive

Can you look up the reported call for CC(C)(C)c1cccc(O)c1 for me?
inactive

How was CCCCCCCCCC/C=C/C#N classified in this test?
inactive

Per the assay record, what outcome was assigned to Cc1nnc(SCC2=C(C(=O)O)N3C(=O)[C@@H](NC(=O)Cn4cnnn4)[C@H]3SC2)s1 ?
inactive

Call for entry Nc1cccc(S(=O)(=O)O)c1 :
inactive

For CC(C)S , what call appears in the results of this test?
inactive

* * *

- measured_target: Cytochrome P450 1A2 (Homo sapiens) (UniProt P05177)
- Sequence (P05177 whole entry, looked up): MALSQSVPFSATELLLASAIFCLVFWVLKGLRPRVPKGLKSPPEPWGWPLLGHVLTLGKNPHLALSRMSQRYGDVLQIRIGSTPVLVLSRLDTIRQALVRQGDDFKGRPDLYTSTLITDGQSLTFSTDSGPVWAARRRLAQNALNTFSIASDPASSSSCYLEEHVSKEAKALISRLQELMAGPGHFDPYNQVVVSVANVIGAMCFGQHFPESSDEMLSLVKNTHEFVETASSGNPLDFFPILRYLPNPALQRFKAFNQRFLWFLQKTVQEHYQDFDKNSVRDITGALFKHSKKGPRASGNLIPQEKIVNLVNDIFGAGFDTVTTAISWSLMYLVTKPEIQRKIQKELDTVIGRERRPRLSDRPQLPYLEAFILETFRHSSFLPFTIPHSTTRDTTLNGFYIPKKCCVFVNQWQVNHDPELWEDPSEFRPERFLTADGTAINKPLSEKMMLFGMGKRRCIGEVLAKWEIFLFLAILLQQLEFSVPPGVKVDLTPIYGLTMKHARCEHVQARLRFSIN
- protocol_description: Cytochrome P450 Family 1 Subfamily A Member 2 (CYP1A2) small molecule antagonists: luciferase reporter qHTS assay (AID 1671199); also: nearly all actives have a fitted effect of over 50% in size
- test_conditions: P450-Glo CYP1A2 enzyme, luciferin luminescence, 1 h; series mostly up to 53 µM
Inconclusive results are not listed. Active and inactive are the calls of the source. The call rests on the fitted dose curve; in most records, active means well fitted inhibition curve with a large enough effect in the repeat runs; inconclusive means weak or mixed curves; inactive means no such curve, though single readings can be large or run the other way.
Outcome field: choose from Y for active, N for inactive

Here's what some known entries look like.
• CC(=O)Oc1cc(C(C)C)c(OCCN(C)C)cc1C = Y
• CCN1CC(CCN2CCOCC2)C(c2ccccc2)(c2ccccc2)C1=O (configuration not stated) = N
• CCN(CC)CC1CCCCN1CC(=O)N1c2ccccc2C(=O)Nc2cccnc21 (configuration not stated) = N
• FC(F)(F)c1ccccc1 = N
• Nc1cccc(S(=O)(=O)O)c1 = N

What was the test verdict on CCCCNC(=S)NCCCC ?
Y

Entry CC(=O)O[C@H]1CC[C@@]2(C)C(=CC[C@@H]3[C@@H]2CC[C@]2(C)C(C(C)=O)=CC[C@@H]32)C1 : call = ?
N

For this compound, state the assay outcome: CCOC(=O)[C@H](CCc1ccccc1)N[C@@H](C)C(=O)N1Cc2cc(OC)c(OC)cc2C[C@H]1C(=O)O
N

* * *

- measured_target: Nuclear receptor subfamily 1 group I member 3 (Homo sapiens) (UniProt Q14994)
- Sequence (Q14994 whole entry, looked up): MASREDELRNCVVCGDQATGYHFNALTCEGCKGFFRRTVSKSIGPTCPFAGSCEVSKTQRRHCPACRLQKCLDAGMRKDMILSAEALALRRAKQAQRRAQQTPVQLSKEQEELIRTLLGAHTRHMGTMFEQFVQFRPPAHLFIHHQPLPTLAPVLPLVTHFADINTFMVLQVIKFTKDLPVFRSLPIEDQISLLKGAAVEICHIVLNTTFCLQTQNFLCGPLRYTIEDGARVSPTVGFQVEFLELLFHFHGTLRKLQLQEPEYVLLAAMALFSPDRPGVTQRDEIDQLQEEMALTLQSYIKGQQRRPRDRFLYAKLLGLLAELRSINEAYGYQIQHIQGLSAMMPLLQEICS
- protocol_description: qHTS assay to identify small molecule agonists of the constitutive androstane receptor (CAR) signaling pathway (AID 1224839);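 also: HepG2 cells stably carrying human CAR and a CYP2B6 luciferase reporter; % is scaled to controls: 0 for no effect and ±100 for the full control effect; nearly all actives have a fitted effect of over 15% in size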
- test_conditions: HepG2 hCAR CYP2B6-luciferase, agonist mode, 24 h; series mostly up to 92.4 µM
Results filed as inconclusive are left out. Calls of active or inactive are those of the source. Calls come from the whole dose curve; as a rule, active = well fitted activation curve with a large enough effect in the repeat runs; inconclusive = weak or mixed curves; inactive = no such curve, though single readings can be large or run the other way.
Classes to choose from: true for active, false for inactive

* CCOC(=O)CS | false
* Cc1cc(S(=O)(=O)O)c(N)cc1Cl | false
* CC1=CC(=O)CC(C)(C)C1=O | false
* N#CSCC(=O)O | false
* CN1CCN(N)CC1 | false
* Nc1cccc(S(=O)(=O)O)c1 | false
* Cc1c(C(=O)NCCO)[n+](=O)c2ccccc2n1[O-] | false
* CC(C)=CCCC(C)CCOC=O (stereo unspecified) | false

Okay, now this compound:
Lab log entry: Cc1c(-c2ccccc2)oc2c(C(=O)OCCN3CCCCC3)cccc2c1=O — outcome as called in the assay?
false

* * *

- measured_target: Androgen receptor (Homo sapiens)
- protocol_description: qHTS assay to identify small molecule antagonists of the androgen receptor (AR) signaling pathway using the MDA cell line in the presence of 0.5 nM R1881 (AID 1259243); also: nearly all actives have a fitted effect of over 50% in size
- test_conditions: MDA-kb2 MMTV-luciferase, R1881 0.5 nM, 16 h; series mostly up to 42.5 µM
Results filed as inconclusive are left out. The source made the active and inactive calls. Calls come from the whole dose curve; as a rule, active = well fitted inhibition curve with a large enough effect in the repeat runs; inconclusive = weak or mixed curves; inactive = no such curve, though single readings can be large or run the other way.
Hi there, use one of these labels in your reply, thanks! active, inactive

Before answering, review these 5 worked examples.
* CC1=C(CC(=O)O)c2cc(F)ccc2/C1=C\c1ccc(S(C)(=O)=O)cc1 | inactive
* CCCOc1ccc2c(c1)CC[C@@H]1[C@@H]2CC[C@]2(C)C(OC)CC[C@@H]12 (stereo partly specified) | active
* CC1(O)CSC(C)(O)CS1 (stereo unspecified) | inactive
* OC[C@H]1O[C@@H](O[C@H]2[C@H](O)[C@@H](O)[C@H](O)O[C@@H]2CO)[C@H](O)[C@@H](O)[C@H]1O | inactive
* CCc1cc2cc(OC)c(OC)cc2c(Cc2ccccc2)n1 | active

Query: recorded result category for Cc1c(C(=O)NCCO)[n+](=O)c2ccccc2n1[O-] in this test
inactive

Just curious, what result did CC1=C2[C@H](/C=C(\C)C(=O)O)CC[C@@H](C)[C@H]2CC1 get here?
active

// param item: C[C@@H]1CN(c2c(F)c(F)c3c(=O)c(C(=O)O)cn(C4CC4)c3c2F)C[C@H](C)N1 ; yields the recorded call
inactive

Fill in: this test's call for Cc1cc(S(=O)(=O)O)c(N)cc1Cl is ___
inactive

For this molecule, state the assay outcome: Cc1cc2nc(N)sc2cc1C
inactive

For this molecule, state the assay outcome: CCCC(CCC)(C(=O)OCC)C(=O)OCC
inactive

* * *

- protocol_description: qHTS assay to test for compound auto fluorescence at 590 nm (red) in HepG2 cells (AID 720674); also: % is scaled to controls: 0 for no effect and ±100 for the full control effect
- test_conditions: HepG2 autofluorescence, red 540/590 nm, 1 h; series mostly up to 91.3 µM
- Description: U.S. Tox21 Program National Center for Advancing Translational Sciences [NCATS] NIH Chemical Genomics Center [NCGC] U.S. Environmental Protection Agency [EPA] National Institutes of Environmental Health Sciences [NIEHS] National Toxicology Program [NTP] U.S. Food and Drug Administration [FDA] Tox21 Assay Overview: Compound auto fluorescence often interferes with screening of the compound library against various biological targets and signaling pathways. […] This assay includes the red fluorescence data. […]
Calls of active or inactive are those of the source. Calls follow the shape of the dose curve; as a rule, active = well fitted curve in the direction sought with a large enough effect in the repeat runs; inconclusive = weak or mixed curves; inactive = flat fitted curve, though single readings scatter.
measured_quantity: fluorescence, relative to Rose Bengal

- C=CCCCCCCCCO: inactive
- CC1(O)CSC(C)(O)CS1 (stereo not given): inactive
- CC(=O)OC(C)OC(C)=O: inactive
- O=C(O)c1cccc(Cl)c1Cl: inactive
- CN1CCN(c2c(F)cc3c(=O)c(C(=O)O)cn(CCF)c3c2F)CC1: inactive

// batch mode: one fluorescence, relative to Rose Bengal value per listed entry
1. CCCCCCCOC(=O)CCC
2. CC(C)C1=CC2=CC[C@@H]3[C@](C)(CCC[C@@]3(C)C(=O)O)[C@H]2CC1
3. CNCCC(Oc1ccccc1OC)c1ccccc1 (stereo not given)
4. O=C1N(c2ccccc2)c2ccccc2C1(Cc1ccncc1)Cc1ccncc1

1. inactive
2. inactive
3. inactive
4. inactive

Record fluorescence, relative to Rose Bengal for all entries; do not skip any.
1. CN1CCN(C2=Nc3ccccc3Oc3ccc(Cl)cc32)CC1
2. O=c1[nH]c(=O)n([C@H]2C[C@H](O)[C@@H](CO)O2)cc1C(F)(F)F

["0.128% [at 18.6 µM] (inactive)", "inactive"]

* * *

- protocol_description: qHTS assay to identify small molecule agonists of the estrogen receptor beta (ER-beta) signaling pathway - cell viability counter screen (AID 1259380); also: % is scaled to controls: 0 for no effect and ±100 for the full control effect; nearly all actives have a fitted effect of over 30% in size
- test_conditions: ER-beta-bla HEK293T viability, CellTiter-Glo luminescence, 16 h; series mostly up to 92.4 µM
Inconclusive results are not listed. Calls of active or inactive are those of the source. The call rests on the fitted dose curve; in most records, active means well fitted cell-killing curve with a large enough effect in the repeat runs; inconclusive means weak or mixed curves, or effect the other way; inactive means flat fitted curve, though single readings scatter.
# output must be one of active, inactive

* CC(C)C(=O)OCC(C)(C)C(O)C(C)C (centres undefined) | inactive
* CCCCCCCOC(=O)CCC | inactive
* COc1ccc(Nc2ccc(OC)cc2)cc1 | inactive

Let us examine a further case.
What did this assay record as the result for CC(C)(C)c1cccc(O)c1 ?
inactive

* * *

- protocol_description: A CellTox Green Cytotoxicity Assay to monitor cytotoxicity in HepG2 cells - 16 hour (AID 1224876); also: % is scaled to controls: 0 for no effect and ±100 for the full control effect; nearly all actives have a fitted effect of over 45% in size
- test_conditions: CellTox Green fluorescence; series mostly up to 76.8 µM
Inconclusive results are not listed. The source made the active and inactive calls. Calls follow the shape of the dose curve; as a rule, active = well fitted activation curve with a large enough effect in the repeat runs; inconclusive = weak or mixed curves; inactive = flat fitted curve, though single readings scatter.
measured_quantity: cytotoxicity increase

// worked examples, cytotoxicity increase included
- COC(C)CCO (configuration not stated): inactive
- CC(C)C(=O)OC/C=C/c1ccccc1: inactive
- C/C(=N\O)[C@@H](C)NCC(C)(C)CN[C@H](C)/C(C)=N/O: inactive
- O=C(C(Cl)Cl)N1CCOC12CCCCC2: inactive

Please state, for each entry, its recorded cytotoxicity increase.
1. CCOc1ccc(OCC)c(Cl)c1
2. OCCN(CCO)CCN(CCO)CCO
3. CC1(C)O[C@@H]2C[C@H]3[C@@H]4CCC5=CC(=O)CC[C@]5(C)[C@@]4(F)[C@@H](O)C[C@]3(C)[C@]2(C(=O)CCl)O1

1. inactive
2. inactive
3. inactive

State recorded cytotoxicity increase for all listed compounds.
1. C1CSCCS1
2. CN1C(=O)CC(c2ccccc2)C1=O (configuration not stated)
3. Cc1nc(N)nc(N)c1-c1ccc(Cl)c(Cl)c1

1: inactive; 2: inactive; 3: inactive

Please report cytotoxicity increase for every entry that follows.
1. Cc1cc2nc(N)sc2cc1C
2. O=C1N(c2ccccc2)c2ccccc2C1(Cc1ccncc1)Cc1ccncc1
3. O=C1Nc2ccc([N+](=O)[O-])cc2C1=O
4. C[C@@H](N)C(=O)O
5. OCC(CBr)(CBr)CBr

1: inactive; 2: inactive; 3: inactive; 4: inactive; 5: inactive

I have 5 compounds here; please give me cytotoxicity increase for each one.
1. O=C1CCCc2ccccc21
2. O=c1oc2c(O)c(O)cc3c(=O)oc4c(O)c(O)cc1c4c23
3. CC(C)(C)c1ccc(OC(=O)c2ccccc2O)cc1
4. CCOc1ccc(NC(N)=O)cc1
5. CC(=O)N[C@@H](CC(C)C)C(=O)O

1: inactive; 2: 1.02% [at 15.8 µM] (inactive); 3: inactive; 4: inactive; 5: inactive
